System: ORYZA
Assay: Post-emergence effects on crop plants (Table F3)
Assay type: in vivo, Oryza sativa
Settings: application rate 80 g/ha, crop plant ORYZA

Compound	post-emergence activity against ORYZA [%]
O=C1N(Cc2ccccc2F)CCCC12CCCN(Cc1ccccc1F)C2=O (single isomer, unassigned) [I-001]	0
O=C1N(Cc2ccccc2)CCCC12CCCN(Cc1ccccc1F)C2=O (racemic) [I-010]	0
O=C1N(Cc2c(F)cccc2F)CCCC12CCCN(Cc1c(F)cccc1F)C2=O (single isomer, unassigned; (-)) [I-009]	10
O=C1N(Cc2ccccc2F)CCCC12CCCN(Cc1cccc(F)c1F)C2=O (racemic) [I-003]	20
O=C1N(Cc2cccc(F)c2F)CCCC12CCCN(Cc1c(F)cccc1F)C2=O (racemic) [I-008]	0
O=C1N(Cc2c(F)cccc2F)CCCC12CCCN(Cc1c(F)cccc1F)C2=O (racemic) [I-006]	10

====

Tested on: VIOTR
Experiment: Herbicidal pre-emergence action, section C (Table C12)
Type: in vivo, Viola tricolor
Details: application rate 80 g/ha; visual grading after ca. 3 weeks
Below: a set of entries, each annotated with reported pre-emergence activity against VIOTR.

Molecule	pre-emergence activity against VIOTR [%]
O=C1N(Cc2ccccc2Cl)CCCC12CCN(Cc1cccc(F)c1F)C2=O (racemic) [I-035]	90
O=C1N(Cc2ccccc2Cl)CCC12CCCN(Cc1c(F)cccc1F)C2=O (racemic) [I-045]	90
O=C1N(Cc2c(F)cccc2F)CCCC12CCCN(Cc1c(F)cccc1F)C2=O (single isomer, unassigned; (-)) [I-009]	80
O=C1N(Cc2ccccc2F)CCCC12CCN(Cc1cccc(F)c1F)C2=O (racemic) [I-016]	90

====

Below: a set of entries, each annotated with reported pre-emergence activity against BRSNW.
Test system: BRSNW
Assay: Pre-emergence effects on crop plants (Table D5)
Assay type: in vivo, Brassica napus
Conditions: crop plant; application rate 320 g/ha; visual grading after ca. 3 weeks
Quantity name: pre-emergence activity against BRSNW (%)

Molecule	Numeric value
O=C1N(Cc2c(F)cccc2Cl)CCCC12CCCN(Cc1c(F)cccc1Cl)C2=O (racemic)	10
COc1ccccc1CN1CCCC2(CCCN(Cc3ccccc3F)C2=O)C1=O (racemic)	0
Cc1cccc(CN2CCCC3(CCCN(Cc4cccc(C)c4F)C3=O)C2=O)c1F (racemic)	10
O=C1N(Cc2cc(F)ccc2F)CCCC12CCCN(Cc1cc(F)ccc1F)C2=O (racemic)	20

====

Below: a set of entries, each annotated with reported pre-emergence activity against ALOMY.
Test system: ALOMY
Experiment: Herbicidal pre-emergence action, section C (Table C2)
Type: in vivo, Alopecurus myosuroides
Settings: application rate 80 g/ha; visual grading after ca. 3 weeks
Quantity name: pre-emergence activity against ALOMY (%)

Compound	Measure unit	Numeric value
O=C1N(Cc2cccc(F)c2F)CCCC12CCCN(Cc1cccc(F)c1F)C2=O (racemic)	%	90
O=C1N(Cc2ccccc2F)CCCC12CCCN(Cc1ccccc1F)C2=O (single isomer, unassigned)	%	100
O=C1N(Cc2ccccc2F)CCCC12CCN(Cc1cccc(F)c1F)C2=O (racemic)	%	90
O=C1N(Cc2c(F)cccc2F)CCCC12CCCN(Cc1c(F)cccc1F)C2=O (single isomer, unassigned; (-))	%	100
O=C1N(Cc2cccc(F)c2F)CCC12CCCN(Cc1c(F)cccc1F)C2=O (racemic)	%	90
O=C1N(Cc2c(F)ccc(F)c2F)CCCC12CCCN(Cc1c(F)ccc(F)c1F)C2=O (racemic)	%	80
O=C1N(Cc2ccccc2)CCC12CCCN(Cc1cccc(F)c1F)C2=O (racemic)	%	90
